- Tested on: Neuropeptide Y receptor type 2 (Homo sapiens)
- Run description: Affinity against Neuropeptide Y receptor Y2 in SK-N-BE2 cell line
Parameter measured: IC50 (nM)
Write the answer as a number in nM, unit excluded.

QUERY: Write IC50 of `CC(=O)N[C@@H](C)C(=O)N[C@@H](CO)C(=O)N[C@@H](CC(C)C)C(=O)N[C@@H](CCCNC(=N)N)C(=O)N[C@@H](Cc1cnc[nH]1)C(=O)N[C@@H](Cc1ccc(O)cc1)C(=O)N[C@@H](CC(C)C)C(=O)N[C@@H](CC(N)=O)C(=O)N[C@@H](Cc1c[nH]c2ccccc12)C(=O)N[C@H](C(=O)N[C@H](C(=O)N[C@@H](CCCNC(=N)N)C(=O)N[C@@H](CCC(N)=O)C(=O)N[C@@H](CCCNC(=N)N)CN[C@@H](Cc1ccc(O)cc1)C(N)=O)[C@@H](C)O)C(C)C` ; system used: Neuropeptide Y receptor type 2 (Homo sapiens)
RESULT: 1.39

----------
- Tested on: Neuropeptide Y receptor type 2 (Homo sapiens, UniProt P49146)
- Sequence (P49146 whole entry): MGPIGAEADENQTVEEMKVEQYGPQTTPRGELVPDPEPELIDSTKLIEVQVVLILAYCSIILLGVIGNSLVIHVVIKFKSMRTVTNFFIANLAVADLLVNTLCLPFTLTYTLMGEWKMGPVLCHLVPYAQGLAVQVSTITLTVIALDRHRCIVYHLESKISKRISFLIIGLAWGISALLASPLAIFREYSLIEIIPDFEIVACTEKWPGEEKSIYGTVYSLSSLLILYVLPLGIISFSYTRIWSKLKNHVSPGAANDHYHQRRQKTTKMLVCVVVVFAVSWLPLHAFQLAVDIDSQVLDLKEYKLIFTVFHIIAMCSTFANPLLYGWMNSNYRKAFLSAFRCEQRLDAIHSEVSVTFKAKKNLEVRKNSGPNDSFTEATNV
- Run description: Affinity against Neuropeptide Y receptor Y2 in SK-N-BE2 cell line
*1 amine or outer side, *2 acyl side, *3 side chain or, on linkers, in order; H or OH if unused. Where a SMILES comes first, the peptide text is derived from it. Side-chain parts run from the residue outwards. [ ]: non-standard residue; d: D form. X4 = NC(N)=NCCC[C@@H](CN([C@@H](Cc1c[nH]cn1)C(=O)[*:2])[*:1])N[*:3]
Parameter measured: IC50 (nM)
Write the answer as a number in nM, unit excluded.

QUERY: Please indicate IC50 recorded for CC(=O)N[C@@H](C)C(=O)N[C@@H](CO)C(=O)N[C@@H](CC(C)C)C(=O)N[C@@H](CCCN=C(N)N)CN[C@@H](Cc1c[nH]cn1)C(=O)N[C@@H](Cc1ccc(O)cc1)C(=O)N[C@@H](CC(C)C)C(=O)N[C@@H](CC(N)=O)C(=O)N[C@@H](CC(C)C)C(=O)N[C@H](C(=O)N[C@H](C(=O)N[C@@H](CCCN=C(N)N)C(=O)N[C@@H](CCC(N)=O)C(=O)N[C@@H](CCCN=C(N)N)C(=O)N[C@@H](Cc1ccc(O)cc1)C(N)=O)[C@@H](C)O)C(C)C (H-[X4]([Leu-Ser-Ala-Ac])YLNLVTRQRY-NH2)
RESULT: 41

----------
- Tested on: Neuropeptide Y receptor type 1 (Homo sapiens, UniProt P25929)
- Sequence (P25929 whole entry): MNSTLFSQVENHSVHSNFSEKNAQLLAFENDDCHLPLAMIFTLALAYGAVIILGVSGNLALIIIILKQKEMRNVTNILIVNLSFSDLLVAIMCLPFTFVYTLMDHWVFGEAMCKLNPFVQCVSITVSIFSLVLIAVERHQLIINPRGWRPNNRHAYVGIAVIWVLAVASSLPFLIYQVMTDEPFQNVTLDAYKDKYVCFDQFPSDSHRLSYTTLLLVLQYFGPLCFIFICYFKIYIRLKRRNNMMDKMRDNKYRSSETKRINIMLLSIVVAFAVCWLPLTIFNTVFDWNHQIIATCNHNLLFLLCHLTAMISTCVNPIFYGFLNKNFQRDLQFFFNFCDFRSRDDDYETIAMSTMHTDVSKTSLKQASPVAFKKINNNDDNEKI
- Run description: Affinity against Neuropeptide Y receptor Y1 in SK-N-MC cell line
- Assay type: cell-based
Where a SMILES comes first, the peptide text is derived from it. [ ]: non-standard residue; d: D form. Dip = N[C@H](C(=O)O)C(c1ccccc1)c1ccccc1
Parameter measured: IC50 (nM)
Write the answer as a number in nM, unit excluded.

QUERY: Write IC50 of CC(=O)N[C@@H](C)C(=O)N[C@@H](CO)C(=O)N[C@@H](CC(C)C)C(=O)N[C@@H](CCCNC(=N)N)C(=O)N[C@@H](Cc1cnc[nH]1)C(=O)N[C@H](C(=O)N[C@@H](CC(C)C)C(=O)N[C@@H](CC(N)=O)C(=O)N[C@@H](CC(C)C)C(=O)N[C@H](C(=O)N[C@H](C(=O)N[C@@H](CCCNC(=N)N)C(=O)N[C@@H](CCC(N)=O)C(=O)N[C@@H](CCCNC(=N)N)C(=O)N[C@@H](Cc1ccc(O)cc1)C(N)=O)[C@@H](C)O)C(C)C)C(c1ccccc1)c1ccccc1 (Ac-ASLRH[Dip]LNLVTRQRY-NH2) ; system used: Neuropeptide Y receptor type 1 (Homo sapiens, UniProt P25929)
RESULT: 447

----------
Kindly supply the reported IC50 values for the records listed here.
- Tested on: Neuropeptide Y receptor type 1 (Homo sapiens)
- Run description: Affinity against Neuropeptide Y receptor Y1 in SK-N-MC cell line
- Format: cell-based
Write the answer as a number in nM, unit excluded.

QUERY: Write IC50 of `CC(=O)N[C@@H](C)C(=O)N[C@@H](CO)C(=O)N[C@@H](CC(C)C)C(=O)N[C@@H](CCCNC(=N)N)C(=O)N[C@@H](Cc1cnc[nH]1)C(=O)N[C@@H](Cc1ccc(O)cc1)C(=O)N[C@@H](CC(C)C)C(=O)N[C@@H](CC(N)=O)C(=O)N[C@@H](Cc1c[nH]c2ccccc12)C(=O)N[C@H](C(=O)N[C@H](C(=O)N[C@@H](CCCNC(=N)N)C(=O)N[C@@H](CCC(N)=O)C(=O)N[C@@H](CCCNC(=N)N)CN[C@@H](Cc1ccc(O)cc1)C(N)=O)[C@@H](C)O)C(C)C` ; system used: Neuropeptide Y receptor type 1 (Homo sapiens)
RESULT: 1510

QUERY: Write IC50 of `CCCC[C@H](NC(=O)[C@H](CO)NC(=O)[C@H](C)NC(C)=O)C(=O)N[C@@H](CCCN=C(N)N)C(=O)N[C@@H](Cc1c[nH]cn1)C(=O)N[C@@H](Cc1ccc(O)cc1)C(=O)N[C@@H](CCCC)C(=O)N[C@@H](CC(N)=O)C(=O)N[C@@H](CCCC)C(=O)N[C@@H](CCC)C(=O)N[C@H](C(=O)N[C@@H](CCCN=C(N)N)C(=O)N[C@@H](CCC(N)=O)C(=O)N[C@@H](CCCN=C(N)N)C(=O)N[C@@H](Cc1ccc(O)cc1)C(N)=O)[C@@H](C)O` ; system used: Neuropeptide Y receptor type 1 (Homo sapiens)
RESULT: 1590

QUERY: Write IC50 of `CC(=O)N[C@@H](C)C(=O)N[C@@H](CO)C(=O)N[C@@H](CC(C)C)C(=O)N[C@@H](CCCN=C(N)N)C(=O)N[C@@H](Cc1c[nH]cn1)C(=O)N[C@@H](Cc1ccc(O)cc1)C(=O)N[C@@H](CC(C)C)C(=O)N[C@@H](CC(N)=O)C(=O)N[C@H](Cc1c[nH]c2ccccc12)C(=O)N[C@H](C(=O)N[C@H](C(=O)N[C@@H](CCCN=C(N)N)C(=O)N[C@@H](CCC(N)=O)C(=O)N[C@@H](CCCN=C(N)N)C(=O)N[C@@H](Cc1ccc(O)cc1)C(N)=O)[C@@H](C)O)C(C)C` ; system used: Neuropeptide Y receptor type 1 (Homo sapiens)
RESULT: 47.9

----------
- Tested on: Neuropeptide Y receptor type 1 (Homo sapiens, UniProt P25929)
- Run description: Affinity against Neuropeptide Y receptor Y1 in SK-N-MC cell line
- Assay type: cell-based
*1 amine or outer side, *2 acyl side, *3 side chain or, on linkers, in order; H or OH if unused. Where a SMILES comes first, the peptide text is derived from it. Side-chain parts run from the residue outwards. [ ]: non-standard residue; d: D form. X3 = CC(C)C[C@@H](CN([C@@H](CCCNC(=N)N)C(=O)[*:2])[*:1])N[*:3]
Kindly supply the reported pIC50 values for the records listed here.
Schema: pIC50 number; meaning minus log10 of the concentration expressed in molar units.

QUERY: Please indicate pIC50 recorded for `CCCC[C@H](NC(=O)[C@H](CO)NC(=O)[C@H](C)NC(C)=O)C(=O)N[C@@H](CCCN=C(N)N)C(=O)N[C@@H](Cc1c[nH]cn1)C(=O)N[C@@H](Cc1ccc(O)cc1)C(=O)N[C@@H](CCCC)C(=O)N[C@@H](CC(N)=O)C(=O)N[C@@H](Cc1c[nH]c2ccccc12)C(=O)N[C@@H](CCC)C(=O)N[C@H](C(=O)N[C@@H](CCCN=C(N)N)C(=O)N[C@@H](CCC(N)=O)C(=O)N[C@@H](CCCN=C(N)N)CN[C@@H](Cc1ccc(O)cc1)C(N)=O)[C@@H](C)O`
RESULT: 5.80

QUERY: Please indicate pIC50 recorded for `CC(=O)N[C@@H](C)C(=O)N[C@@H](CO)C(=O)N[C@@H](CC(C)C)C(=O)N[C@@H](CCCN=C(N)N)C(=O)N[C@@H](Cc1c[nH]cn1)C(=O)N[C@H](CN[C@@H](CC(C)C)C(=O)N[C@@H](CC(N)=O)C(=O)N[C@@H](CC(C)C)C(=O)N[C@H](C(=O)N[C@H](C(=O)N[C@@H](CCCN=C(N)N)C(=O)N[C@@H](CCC(N)=O)C(=O)N[C@@H](CCCN=C(N)N)C(=O)N[C@@H](Cc1ccc(O)cc1)C(N)=O)[C@@H](C)O)C(C)C)Cc1ccc(O)cc1`
RESULT: 5.90

QUERY: Please indicate pIC50 recorded for `CCCC[C@H](NC(=O)[C@H](CO)NC(=O)[C@H](C)NC(C)=O)C(=O)N[C@@H](CCCNC(=N)N)C(=O)N[C@@H](Cc1cnc[nH]1)C(=O)N[C@@H](Cc1ccc(O)cc1)C(=O)N[C@@H](CCCC)C(=O)N[C@@H](CC(N)=O)C(=O)N[C@@H](Cc1c[nH]c2ccccc12)C(=O)N[C@@H](CCC)C(=O)N[C@H](C(=O)N[C@@H](CCCNC(=N)N)C(=O)N[C@@H](CCC(N)=O)C(=O)N[C@@H](CCCNC(=N)N)C(=O)N[C@@H](Cc1ccc(O)cc1)C(N)=O)[C@@H](C)O`
RESULT: 6.74

QUERY: Please indicate pIC50 recorded for CC(=O)N[C@@H](C)C(=O)N[C@@H](CO)C(=O)N[C@H](CN[C@@H](CCCNC(=N)N)C(=O)N[C@@H](Cc1cnc[nH]1)C(=O)N[C@@H](Cc1ccc(O)cc1)C(=O)N[C@@H](CC(C)C)C(=O)N[C@@H](CC(N)=O)C(=O)N[C@@H](CC(C)C)C(=O)N[C@H](C(=O)N[C@H](C(=O)N[C@@H](CCCNC(=N)N)C(=O)N[C@@H](CCC(N)=O)C(=O)N[C@@H](CCCNC(=N)N)C(=O)N[C@@H](Cc1ccc(O)cc1)C(N)=O)[C@@H](C)O)C(C)C)CC(C)C (H-[X3]([Ser-Ala-Ac])HYLNLVTRQRY-NH2)
RESULT: 6.13
